Let's look at some compounds and their measured DAR.
test: Stability (placement) test of ADCs at 40° C. in dark for 14 days, DAR and polymer content; format: physicochemical; conditions: Day 0, 40° C. in dark
*1 amine or outer side, *2 acyl side, *3 side chain or, on linkers, in order; H or OH if unused. Where a SMILES comes first, the peptide text is derived from it. [ ]: non-standard residue; d: D form. The star is where a group is joined. X2 = CO[C@@H]([C@H]1CCCN1[*:1])[C@@H](C)C(=O)[*:2]; Propanoyl(3-maleimido) = O=C1C=CC(=O)N1CCC(=O)*; Dil = CC[C@H](C)[C@H](NC)[C@@H](CC(=O)O)OC; X1 = O=C(CN1CCOCCN([*:1])CCOCC1)[*:2]; PABC = O=C(OCc1ccc(N[*:1])cc1)[*:2]; X3 = C[C@@H](N*)[C@@H](O)c1ccccc1; NMeV = CN[C@H](C(=O)O)C(C)C
No unit in the answer, only the number.

Some compounds with known DAR results, for comparison:
# COMPOUND, DAR
rows = [
    ("C=C1C[C@@H]2CC[C@@]34C[C@H]5OC6C(O[C@H]7CC[C@H](CC(=O)C[C@@H]8[C@@H](OC)[C@@H](C[C@H](O)CNC(=O)OCc9ccc(NC(=O)[C@H](CCCNC(N)=O)NC(=O)[C@@H](NC(=O)CN%10CCOCCN(C(=O)CCN%11C(=O)C=CC%11=O)CCOCC%10)C(C)C)cc9)O[C@H]8C[C@H]8O[C@@H](CC[C@@H]1O2)C[C@@H](C)C8=C)O[C@@H]7[C@@H]6O3)[C@H]5O4", 3.85),
    ("CC[C@H](C)[C@@H]([C@@H](CC(=O)N1CCC[C@@H]1[C@H](OC)[C@@H](C)C(=O)N[C@H](C)[C@@H](O)c1ccccc1)OC)N(C)C(=O)[C@@H](NC(=O)[C@H](C(C)C)N(C)C(=O)OCc1ccc(NC(=O)CNC(=O)[C@H](Cc2ccccc2)NC(=O)CNC(=O)CN2CCOCCN(C(=O)CCN3C(=O)C=CC3=O)CCOCC2)cc1)C(C)C [Example 86] ({Propanoyl(3-maleimido)}-[X1]GFG[PABC][NMeV]V[Dil][X2]-X3)", 4.20),
]

Value lookup for DAR; key = "C=C1C[C@@H]2CC[C@@]34C[C@H]5OC6C(O[C@H]7CC[C@H](CC(=O)C[C@@H]8[C@@H](OC)[C@@H](C[C@H](O)CNC(=O)CNC(=O)[C@H](Cc9ccccc9)NC(=O)CNC(=O)CNC(=O)CN9CCOCCN(C(=O)CCN%10C(=O)C=CC%10=O)CCOCC9)O[C@H]8C[C@H]8O[C@@H](CC[C@@H]1O2)C[C@@H](C)C8=C)O[C@@H]7[C@@H]6O3)[C@H]5O4"
4.08

Taken from patent US20240293570A1.
